Values from ChEMBL document CHEMBL1201862

Tested on: HOP-62
test.method.notes: NCI tumour cell line growth inhibition, 48 h
Calls of active or inactive are those of the source. No stated cut-off is given here; in the data, active = GI50 up to about 1.1 µM and inactive = higher.
Outcomes: 1 (active), -1 (inactive)

>>> classification("CCOC(=O)c1cn(CC)c2ccc3c(c2c1=O)S(=O)(=O)C=C3")
-1
>>> classification("COc1cc2c(OC)c3cc(C)oc(=O)c3c(O)c2c(O)c1-c1c(OC)cc2c(OC)c3cc(C)oc(=O)c3c(O)c2c1O")
-1
>>> classification("CC(CCCOC(c1ccccc1)(c1ccccc1)c1ccccc1)OC(=O)Nc1ccccc1 (configuration not stated)")
-1
>>> classification("N=C1NC(=O)N2CC12 (configuration not stated) [IMEXON]")
-1
>>> classification("Cc1ccc(S(=O)(=O)N2CCCC2C(=O)O[C@H]2CC[C@H]3CC=C[C@H]32)cc1 (some centres not stated)")
-1
>>> classification("Cc1n[nH]c(=O)n1/N=C/c1ccncc1")
-1
>>> classification("Cc1nc2cc3ccccc3cc2[nH]c1=O")
-1
>>> classification("O=C(O)CSCCc1ccccc1")
-1
>>> classification("ClC/C=C/COC1CCCCO1 (configuration not stated)")
-1
>>> classification("OC1CCCN(C2(c3cccs3)CCCCC2)C1 (configuration not stated)")
-1
>>> classification("CCCC1(N2C(=O)c3ccc4c5c(ccc(c35)C2=O)N(C2(CCC)CCCCC2)C4=O)CCCCC1")
-1
>>> classification("O=C(C(=C(I)I)c1ccccc1)c1ccccc1")
-1
>>> classification("COc1ccc(-c2cs/c(=N\\c3ccccc3)n2CCCN(C)C)cc1")
-1
>>> classification("N#CC(C(=O)Nc1ccccc1)C1=C(Cl)C(=O)c2ccccc2C1=O (configuration not stated)")
-1
>>> classification("Cc1nn(C(=O)c2ccc(Cl)cc2)c2c1C(c1ccccc1O)SC(=N)N2 (configuration not stated)")
-1
>>> classification("CC(C)CCNc1ncnc2[nH]ncc12")
-1
>>> classification("CCOC(=O)N1CCNCCN(C(=O)OCC)CCNCC1")
-1
>>> classification("CCSc1nc(=S)n(-c2ccccc2)c(C)c1C(C)=O")
-1
>>> classification("O=c1oc2ccccc2c(-c2ccc(O)cc2)c1Oc1ccccc1")
-1
>>> classification("CCCCNC(=S)Nc1nc(C(=O)NNC(=S)NCc2ccccc2)cs1")
-1
>>> classification("OCc1cc2c(cn1)[nH]c1ccc(NCc3ccccc3)cc12")
-1
>>> classification("CC1(C)OC2C(CO)OC(n3ccc(=O)[nH]c3=O)C2O1 (configuration not stated)")
-1
>>> classification("COC1=CC(=O)[C@@]2(C)C(C)[C@H](c3ccccc3)[C@H]2C1=O (some centres not stated)")
-1
>>> classification("O=c1[nH]/c(=C/c2ccc(OCc3ccccc3)cn2)c(=O)[nH]/c1=C/c1cccnc1")
1
>>> classification("CC(C)=CCC/C(C)=C/COC(C)(C)C1=CCC(C)CC1.CC(C)=CCC/C(C)=C/COC1CC(C)CCC1=C(C)C (configuration not stated)")
-1
>>> classification("CCC1c2[nH]c3ccccc3c2C[C@H]2C(=O)N3CCC[C@H]3C(=O)N12 (some centres not stated)")
-1
>>> classification("CCCCNc1nc(N)nc(Nc2ccc(Br)cc2)c1N=O")
-1

* * *

System: HCT-116
test.method.notes: NCI tumour cell line growth inhibition, 48 h
Activity calls are given as the source filed them. No stated cut-off is given here; in the data, active = GI50 up to about 1.1 µM and inactive = higher.
property.measured: GI50

>>> result("CC(C)SC1SCC2C(=O)N(C)C3(CC3C)C(=O)OCC(NC(=O)c3nc4ccccc4cc3O)C(=O)NC(C)C(=O)N(C)C1C(=O)N(C)C1(CC1C)C(=O)OCC(NC(=O)c1nc3ccccc3cc1O)C(=O)NC(C)C(=O)N2C (stereo not given)")
"< 0.0001 µM (active)"
>>> result("CCC1CNC(=O)CC1CC(=O)OC (stereo not given)")
"> 100 µM (inactive)"
>>> result("CCN(CC)CC(=O)O[C@]1(CC)C(=O)OCc2c1cc1n(c2=O)Cc2cc3ccccc3nc2-1")
"0.0307 µM (active)"
>>> result("CC(C)CCNc1ncnc2[nH]ncc12")
"> 100 µM (inactive)"
>>> result("O=C(NCCCN1CCN(CCCNC(=O)c2cc(-c3ccccc3)nc3ccccc23)CC1)c1cc(-c2ccccc2)nc2ccccc12")
"23.4 µM (inactive)"
>>> result("CCc1ncc(C(C)(O)c2ccccc2)n1Cc1ccccc1 (stereo not given)")
"0.124 µM (active)"
>>> result("O=C(C(=C(I)I)c1ccccc1)c1ccccc1")
"17.1 µM (inactive)"
>>> result("CCOC(=O)CCC(NC(=O)OCc1ccccc1)C(=O)NNC(=O)OC(C)(C)C (stereo not given)")
"> 100 µM (inactive)"
>>> result("CCCC1(N2C(=O)c3ccc4c5c(ccc(c35)C2=O)N(C2(CCC)CCCCC2)C4=O)CCCCC1")
"> 100 µM (inactive)"
>>> result("Oc1ccccc1C1=NOC(c2ccc(C(F)(F)F)cc2)C1 (stereo not given)")
"> 50 µM (inactive)"
>>> result("O=C(OCc1ccccc1)N1CCNCCNCCN(C(=O)OCc2ccccc2)CCNCC1")
"14 µM (inactive)"
>>> result("O=c1oc2ccccc2c(Nc2ccc3c(c2)Sc2ccccc2O3)c1[N+](=O)[O-]")
"25.5 µM (inactive)"
>>> result("COc1cc(C(=O)Nc2nnc(S(N)(=O)=O)s2)cc(OC)c1OC")
"> 100 µM (inactive)"
>>> result("O=C(OCc1ccccc1)c1ccc(NCc2cc(O)ccc2O)cc1")
"1.51 µM (inactive)"
>>> result("CCOC(=O)/C(ON)=C(/CC/C(C(=O)OC)=C(\\ON)C(=O)OCC)C(=O)OC")
"> 100 µM (inactive)"
>>> result("N#CC(C(=O)Nc1ccccc1)C1=C(Cl)C(=O)c2ccccc2C1=O (stereo not given)")
"14.2 µM (inactive)"
>>> result("COc1cc(C(C)c2cc3c(cc2OCCOCCOc2cc4c(cc2C(C)c2cc(OC)c(OC)c(OC)c2)OCO4)OCO3)cc(OC)c1OC (stereo not given)")
"> 10 µM (inactive)"
>>> result("CC(=O)NNc1nc(C)c(C(=O)NNC(=O)C(=O)Nc2ccc(Cl)cc2Cl)s1")
"47.2 µM (inactive)"
>>> result("O=C1C2=Cc3ccccc3OC2(O)Oc2cc3ccccc3cc21 (stereo not given)")
"> 100 µM (inactive)"
>>> result("O=C(O)CSCCc1ccccc1")
"> 100 µM (inactive)"

* * *

System: RXF 393
test.method.notes: NCI tumour cell line growth inhibition, 48 h
Activity calls are given as the source filed them. Cut-off read from the data, not from the text of the source: active = GI50 up to about 1.1 µM and inactive = higher.
Outcomes: Yes = active, No = inactive

>>> classification("C1CN(C23OC4(N5CCOCC5)C5C6CC(C7C6C4C72)C53)CCO1 (stereo not given)")
"No"
>>> classification("O=C1NC(NCc2ccc(F)cc2)=N/C1=C\\c1ccccc1Cl")
"No"
>>> classification("CCOC(=O)c1sc2nc(SC)nc(N3CCCCC3)c2c1N")
"No"
>>> classification("C[C@@H]1C[C@@H]([C@H](O)CC2CC(=O)NC(=O)C2)C(=O)[C@@H](C)C1 [CYCLOHEXIMIDE]")
"Yes"
>>> classification("CC1(c2cccc(N)c2)C2C(=O)NC(=O)C1C(=O)NC2=O (stereo not given)")
"No"
>>> classification("CC(C)C(=O)Cc1ccc2ccccc2n1")
"No"
>>> classification("O=C1OC(OC/C(Br)=C(/Br)COC2OC(=O)C(Cl)=C2Cl)C(Cl)=C1Cl (stereo not given)")
"No"
>>> classification("O=[N+]([O-])c1cc(Cl)cc2cc(Br)cnc12")
"No"
>>> classification("Cc1nc(Nc2ccc([N+](=O)[O-])cc2)sc1C(/C=C/c1ccc(N(C)C)cc1)=N/NC(=O)c1ccccc1")
"No"
>>> classification("Cc1cc(C)nc(NS(=O)(=O)c2ccc(NC(=O)c3cccc4c(Nc5ccc(S(=O)(=O)Nc6cc(C)on6)cc5)c5ccccc5nc34)cc2)n1")
"No"
>>> classification("O=S(=O)(N1CCCCN(S(=O)(=O)C(F)(F)F)CCCN(S(=O)(=O)C(F)(F)F)CCCCN(S(=O)(=O)C(F)(F)F)CCCN(S(=O)(=O)C(F)(F)F)CCCCN(S(=O)(=O)C(F)(F)F)CCCN(S(=O)(=O)C(F)(F)F)CCCCN(S(=O)(=O)C(F)(F)F)CCC1)C(F)(F)F")
"No"
>>> classification("O=C(CBr)NCCc1c[nH]c2ccccc12")
"Yes"
>>> classification("O=C(O)CNC(=O)C1NC(C(F)(F)F)(C(F)(F)F)OC1(C(F)(F)F)C(F)(F)F (stereo not given)")
"No"
>>> classification("O=C(NCCCN1CCN(CCCNC(=O)c2cc(-c3ccccc3)nc3ccccc23)CC1)c1cc(-c2ccccc2)nc2ccccc12")
"No"
>>> classification("N=C1NC(=O)N2CC12 (stereo not given) [IMEXON]")
"No"
>>> classification("N=C(N)NS(=O)(=O)c1ccc(NNc2c3ccccc3nc3ccccc23)cc1")
"No"
>>> classification("CC1CC(c2ccccc2)=Nc2ccccc2S1 (stereo not given)")
"No"
>>> classification("O=C(O)C1C2CC3CC2CC31 (stereo not given)")
"No"
>>> classification("CCCCC1Nc2ccccc2-c2ccnc(Cl)c21 (stereo not given)")
"No"
>>> classification("CC(C)C1=C(O)C(=O)C2=C(C1=O)C(OC=O)C(O)C1C(C)(C)CCCC21C (stereo not given)")
"No"
